biological target: recombinant guanylate cyclase reporter cell line (Rattus norvegicus, UniProt P19686+P20595); construct: expressed in transfected cells; experiment: B-2. Action on recombinant guanylate cyclase reporter cell line; assay type: cell-based; conditions: MEC = minimal effective concentration; in some cases mean values from individual determinations
readout name: MEC (µM)
Write down the numeric answer in µM and omit the unit.

Study these solved cases before continuing.
# compound, MEC, µM
data = [
    ("Cc1nc2c(OCc3c(F)cccc3F)cccn2c1C(=O)N[C@H](C)CN1CCOCC1 [Example 170]", 3.00),
    ("Cc1cc(OCc2c(F)cccc2F)c2nc(C)c(C(=O)NC(CN)c3ccc4c(c3)OCO4)n2c1 (racemic) [Example 381]", 0.30),
    ("Cc1nc2c(OCc3c(F)cccc3F)cc(Cl)cn2c1C(=O)NCC1CCCCN1 (single isomer, unassigned; ent-6) [Example 191]", 1.00),
    ("CCCC(C)(N)CNC(=O)c1c(C)nc2c(OCc3c(F)ccc(F)c3F)cc(C)cn12 (single isomer, unassigned) [Example 295]", 0.10),
]

INPUT: Reported MEC, compound CCC(C)(N)CNC(=O)c1c(C)nc2c(OCc3c(F)ccc(C4CC4)c3F)cc(C)cn12 (centres unmarked) [Example 363] : ____
OUTPUT: 3.00

====

Molecular target: recombinant guanylate cyclase reporter cell line (Rattus norvegicus, UniProt P19686+P20595)
Construct: expressed in transfected cells
Sequence (P20595 1-619): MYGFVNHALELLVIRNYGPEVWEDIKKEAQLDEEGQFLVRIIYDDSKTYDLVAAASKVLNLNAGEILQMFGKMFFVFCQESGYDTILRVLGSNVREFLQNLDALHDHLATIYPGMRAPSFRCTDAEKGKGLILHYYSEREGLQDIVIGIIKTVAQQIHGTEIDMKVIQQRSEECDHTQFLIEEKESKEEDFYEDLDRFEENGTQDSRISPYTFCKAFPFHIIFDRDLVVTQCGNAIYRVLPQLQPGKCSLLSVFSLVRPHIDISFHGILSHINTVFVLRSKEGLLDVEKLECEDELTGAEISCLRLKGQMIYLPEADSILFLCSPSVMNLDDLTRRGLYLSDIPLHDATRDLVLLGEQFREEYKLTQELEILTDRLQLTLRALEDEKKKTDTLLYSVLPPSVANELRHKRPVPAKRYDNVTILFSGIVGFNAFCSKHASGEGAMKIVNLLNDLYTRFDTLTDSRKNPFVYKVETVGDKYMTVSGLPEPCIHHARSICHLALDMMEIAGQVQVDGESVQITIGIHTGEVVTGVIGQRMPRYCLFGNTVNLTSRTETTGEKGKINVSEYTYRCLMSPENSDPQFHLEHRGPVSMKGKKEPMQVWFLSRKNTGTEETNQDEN
Sequence (P19686 1-690): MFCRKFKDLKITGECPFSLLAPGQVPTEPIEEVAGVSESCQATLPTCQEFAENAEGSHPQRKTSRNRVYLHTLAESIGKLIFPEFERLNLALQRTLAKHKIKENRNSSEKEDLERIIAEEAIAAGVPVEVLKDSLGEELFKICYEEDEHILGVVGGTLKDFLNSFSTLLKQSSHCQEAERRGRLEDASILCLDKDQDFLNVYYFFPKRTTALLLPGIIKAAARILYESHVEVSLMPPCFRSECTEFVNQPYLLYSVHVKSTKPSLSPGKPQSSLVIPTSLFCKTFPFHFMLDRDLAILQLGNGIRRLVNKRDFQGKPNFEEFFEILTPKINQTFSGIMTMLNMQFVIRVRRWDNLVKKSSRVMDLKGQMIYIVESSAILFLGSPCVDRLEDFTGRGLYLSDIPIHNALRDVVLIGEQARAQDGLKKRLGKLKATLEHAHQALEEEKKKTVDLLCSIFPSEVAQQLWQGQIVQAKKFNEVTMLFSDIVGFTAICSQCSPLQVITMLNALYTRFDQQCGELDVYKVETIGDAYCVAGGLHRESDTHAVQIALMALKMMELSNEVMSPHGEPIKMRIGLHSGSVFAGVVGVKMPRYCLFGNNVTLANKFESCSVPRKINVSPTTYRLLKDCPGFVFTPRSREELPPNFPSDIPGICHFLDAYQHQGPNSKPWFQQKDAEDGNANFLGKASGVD
Assay: B-2. Action on recombinant guanylate cyclase reporter cell line
Assay type: cell-based
Details: MEC = minimal effective concentration; in some cases mean values from individual determinations
Method: B-2. Action on Recombinant Guanylate Cyclase Reporter Cell Line The cellular action of the compounds according to the invention is determined on a recombinant guanylate cyclase reporter cell line, as described in F. Wunder et al., Anal. Biochem. 339, 104-112 (2005). Representative MEC values (MEC=minimal effective concentration) for the compounds according to the invention are shown in the following table (in some cases as mean values obtained from individual determinations): […]
readout name: MEC (µM)
The response must be a number in µM with no trailing unit.

In the examples that follow, each entry is paired with its recorded MEC.
# compound, MEC [µM]
measured = [
    ("CCC(C)(N)CNC(=O)c1c(C)nc2c(OCc3c(F)cccc3F)cc(Cl)cn12 (single isomer, unassigned) [Example 194]", 0.10),
    ("Cc1nc2c(OCc3c(F)cccc3F)cccn2c1C(=O)NCC(C)(N)CC(C)C (single isomer, unassigned) [Example 204]", 1.00),
    ("COc1ccc(CC(C)(N)CNC(=O)c2c(C)nc3c(OCc4c(F)cccc4F)cc(C)cn23)cc1 (racemic)", 0.10),
    ("Cc1cc(OCc2c(F)cccc2F)c2nc(C)c(C(=O)NCC(N)c3cc(F)c(F)c(F)c3)n2c1 (racemic)", 1.00),
    ("Cc1nc2c(OCc3c(F)ccc(F)c3F)cccn2c1C(=O)NC(CN)c1ccc(F)c(F)c1 (centres unmarked)", 0.30),
]

INPUT: Can you share its MEC? I mean this compound: COCC(C)(N)CNC(=O)c1c(C)nc2c(OCc3c(F)cccc3F)cc(Cl)cn12 (single isomer, unassigned) [Example 197]
OUTPUT: 1.00

INPUT: Which MEC value is on record for Cc1cc(OCc2c(F)cccc2F)c2nc(C)c(C(=O)NC(CN)c3ccc(C#N)cc3)n2c1 (racemic) ?
OUTPUT: 0.30

INPUT: Name the reported MEC value associated with the compound Cc1nc2c(OCc3c(F)cccc3F)cccn2c1C(=O)NC1CNc2ccccc21 (racemic) [Example 28]
OUTPUT: 0.30

INPUT: Data request, read-out MEC, for Cc1nc2c(OCc3c(F)cccc3F)cc(Cl)cn2c1C(=O)NCCN
OUTPUT: 1.00

INPUT: What value of measured MEC is listed for Cc1nc2c(OCc3c(F)cccc3F)cc(Cl)cn2c1C(=O)NCCC(C)(C)N ?
OUTPUT: 0.30

INPUT: What MEC value was documented for this compound, Cc1cc(OCc2c(F)cccc2F)c2nc(C)c(C(=O)NCC3CSCCN3)n2c1 (racemic) ?
OUTPUT: 0.10

====

MEC reference
target: recombinant guanylate cyclase reporter cell line (Rattus norvegicus, UniProt P19686+P20595); construct: expressed in transfected cells; assay: B-2. Action on recombinant guanylate cyclase reporter cell line; format: cell-based; conditions: MEC = minimal effective concentration; in some cases mean values from individual determinations
Structures can show the parent of a compound that is named as a salt.
// return numeric value only (unit: µM, not printed)

Below, 2 compounds whose answers are already recorded.
# compound, units label, MEC
records = [
    ("Cc1nc2c(OCc3c(F)cccc3F)cc(Cl)cn2c1C(=O)NCCCN", "µM", 1.00),
    ("Cc1nc2c(OCc3c(F)cccc3F)cc(Cl)cn2c1C(=O)NCC(C)N (racemic) [Example 23]", "µM", 0.30),
]

INPUT: Using the record for NCC(NC(=O)c1cnc2c(OCc3c(F)cccc3F)cccn12)c1ccc(F)c(F)c1 (stereo not drawn) [Example 55, dihydrochloride] , report its MEC.
OUTPUT: 2.00

INPUT: May I ask what MEC has been recorded for Cc1nc2c(OCc3c(F)cccc3F)cccn2c1C(=O)NC(CN1CCOCC1)c1ccccc1 (single isomer, unassigned; ent-8) [Example 182] ?
OUTPUT: 3.00

INPUT: Record request: MEC value, item Cc1nc2c(OCc3c(F)cccc3F)cccn2c1C(=O)NC1CNc2ccccc2C1 (single isomer, unassigned; ent-8) [Example 81]
OUTPUT: 1.00

INPUT: Look at this compound and give its reported MEC. CCCC(C)(N)CNC(=O)c1c(C)nc2c(OCc3ccccc3)cc(C)cn12 (racemic)
OUTPUT: 1.00

====

Target: recombinant guanylate cyclase reporter cell line (Rattus norvegicus, UniProt P19686+P20595)
Construct: expressed in transfected cells
Sequence (P20595 1-619): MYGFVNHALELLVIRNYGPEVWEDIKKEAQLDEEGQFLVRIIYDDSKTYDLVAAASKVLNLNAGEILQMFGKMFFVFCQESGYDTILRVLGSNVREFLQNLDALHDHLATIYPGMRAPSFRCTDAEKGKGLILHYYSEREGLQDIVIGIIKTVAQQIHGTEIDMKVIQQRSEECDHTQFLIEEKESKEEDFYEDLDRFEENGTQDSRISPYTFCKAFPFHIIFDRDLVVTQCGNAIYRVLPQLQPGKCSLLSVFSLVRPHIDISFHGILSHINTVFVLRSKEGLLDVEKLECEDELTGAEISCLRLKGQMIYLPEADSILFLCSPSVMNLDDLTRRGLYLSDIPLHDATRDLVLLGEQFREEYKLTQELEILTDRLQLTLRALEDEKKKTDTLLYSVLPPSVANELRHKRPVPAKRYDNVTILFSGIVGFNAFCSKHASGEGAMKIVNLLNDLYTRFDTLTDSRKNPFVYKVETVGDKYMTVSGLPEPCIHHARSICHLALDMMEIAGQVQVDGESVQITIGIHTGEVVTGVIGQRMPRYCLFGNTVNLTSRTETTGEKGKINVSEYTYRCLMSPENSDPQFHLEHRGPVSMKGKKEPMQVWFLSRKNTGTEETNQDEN
Sequence (P19686 1-690): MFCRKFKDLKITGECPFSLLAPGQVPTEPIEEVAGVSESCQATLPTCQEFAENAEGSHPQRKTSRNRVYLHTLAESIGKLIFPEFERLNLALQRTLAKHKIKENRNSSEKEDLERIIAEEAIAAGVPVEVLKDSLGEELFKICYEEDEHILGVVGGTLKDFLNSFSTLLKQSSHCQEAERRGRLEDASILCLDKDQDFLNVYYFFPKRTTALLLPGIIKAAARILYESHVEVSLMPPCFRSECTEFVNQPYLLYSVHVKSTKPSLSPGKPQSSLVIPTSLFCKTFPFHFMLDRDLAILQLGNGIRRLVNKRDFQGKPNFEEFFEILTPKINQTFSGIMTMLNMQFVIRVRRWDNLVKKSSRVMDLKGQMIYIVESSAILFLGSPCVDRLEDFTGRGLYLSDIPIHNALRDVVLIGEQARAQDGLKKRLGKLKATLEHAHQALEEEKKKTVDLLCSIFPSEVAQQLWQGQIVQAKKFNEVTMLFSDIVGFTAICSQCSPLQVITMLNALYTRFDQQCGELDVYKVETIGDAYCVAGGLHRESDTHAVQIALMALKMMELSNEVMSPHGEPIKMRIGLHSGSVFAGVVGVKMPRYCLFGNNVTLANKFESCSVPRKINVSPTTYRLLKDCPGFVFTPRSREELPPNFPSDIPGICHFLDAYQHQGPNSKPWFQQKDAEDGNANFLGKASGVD
Assay: B-2. Action on recombinant guanylate cyclase reporter cell line
Format: cell-based
Conditions: MEC = minimal effective concentration; in some cases mean values from individual determinations
readout name: MEC (µM)
State just the number; it will be interpreted in µM.

INPUT: # get_value(readout='MEC', item= Cc1cc(OCc2c(F)cccc2F)c2nc(C)c(C(=O)NCC(C)N3CCOCC3)n2c1 (racemic) [Example 138] )
OUTPUT: 0.30

INPUT: Need MEC, item CCCC(C)(N)CNC(=O)c1c(C)nc2c(OCc3c(F)ccc(OC)c3F)cc(C)cn12 (stereo not shown) [Example 364]
OUTPUT: 0.30

INPUT: Return reported MEC; argument: Cc1cc(OCc2c(F)cccc2F)c2nc(C)c(C(=O)NCC(C)(N)CCOCc3ccccc3)n2c1 (racemic) [Example 262]
OUTPUT: 0.10

INPUT: State the recorded MEC for this entry: Cc1cc(OCc2c(F)cccc2F)c2nc(C)c(C(=O)NCC(N)c3cccc(OC(F)(F)F)c3)n2c1 (racemic) [Example 377]
OUTPUT: 3.00
